- ASSAY_EXPLANATION: CMV-Luciferase Counterscreen for Inhibitors of ATXN expression; also: nearly all actives have a fitted effect of over 55% in size
- PROTOCOL_CONDITIONS: HEK-293 CMV-luciferase reporter, luminescence, 24 h; series mostly up to 57.5 µM
The campaign covered roughly 2,100 compounds. About 670 (32%) were called active. Not shown: some 50% with an inconclusive outcome. Calls follow the shape of the dose curve; as a rule, active = well fitted inhibition curve with a large enough effect; inconclusive = small, poorly fitted or top-dose-only effect; inactive = no such curve, though single readings can be large or run the other way. The list shows a part of the results.
Respond only with the outcome that fits, drawn from active, inactive

Known results for molecules:
COc1ccc(CC(N)c2csc(NC(=O)c3cccc(OC(F)(F)F)c3)n2)cc1 (stereo not given) : active
Nc1ccc(Oc2ccccc2-c2ccccc2)cc1 : active
Cc1ccc(C(=O)N/N=C/c2nc3ccccc3n2C)cc1 : inactive

Task: Call for entry CC(=O)Oc1ccc(N(C(C)=O)S(=O)(=O)c2cccs2)c2ccccc12 :
Output: active

Task: Note, next up: Cc1ccc(C(C)C)c(OCc2ccc(C(=O)N/N=C/c3cccc(O)c3O)cc2)c1
Output: active

* * *

- ASSAY_EXPLANATION: CMV-Luciferase Counterscreen for Inhibitors of ATXN expression; also: nearly all actives have a fitted effect of over 55% in size
- PROTOCOL_CONDITIONS: HEK-293 CMV-luciferase reporter, luminescence, 24 h; series mostly up to 57.5 µM
- Text: PI: Daniel Scoles Ph.D. University of Utah School of Medicine, Salt Lake City, Utah MLPCN Grant: NS073009 Spinocerebellar ataxia type 2 (SCA2) is a multisystem neurodegenerative disease caused by a dominantly acting mutation leading to expansion of a polyQ domain in the ataxin-2 protein (ATXN2). SCA2 patients develop progressive ataxia and later lose function in other neuronal systems. […] Here we describe a 5-7 dose quantitative high thoroughput screen (qHTS) for compounds lowering ATXN2 expression. […]
Screen size: about 2,100 compounds; about 670 (32%) were called active. Not shown: some 50% with an inconclusive outcome. The call rests on the fitted dose curve; in most records, active means well fitted inhibition curve with a large enough effect; inconclusive means small, poorly fitted or top-dose-only effect; inactive means no such curve, though single readings can be large or run the other way. The list shows a part of the results.
Respond only with the outcome that fits, drawn from active, inactive

CC(=O)Nc1ccc(N(CC(O)Cn2c3ccccc3c3ccccc32)S(=O)(=O)c2ccc(C)cc2)cc1 (stereo not given) : active
CN(C)CCCNc1nc2cc(-c3cccc(Cl)c3)sc2c(=O)n1C : inactive
O=C(Nc1ccc(NC(=O)c2ccc(Cl)cc2Cl)cc1)c1cccs1 : inactive

Please find the next compound below.
Task: Call for entry COc1ccc(Cn2c(-c3ccc(C)cc3)c[n+]3ccccc23)cc1 :
Output: active

* * *

# activity change, negative = inhibition annotations
- ASSAY_EXPLANATION: CMV-Luciferase Counterscreen for Inhibitors of ATXN expression; also: nearly all actives have a fitted effect of over 55% in size; as to activity change, negative = inhibition: % is scaled to controls: 0 for no effect and ±100 for the full control effect
- PROTOCOL_CONDITIONS: HEK-293 CMV-luciferase reporter, luminescence, 24 h; series mostly up to 57.5 µM
The campaign covered roughly 2,100 compounds. About 670 (32%) were called active. Roughly 50% stayed inconclusive and do not appear here. Some of the results follow.

Recorded activity change, negative = inhibition, per entry:
COc1cc2c(O)c3c(c(-c4ccc5c(c4)OCO5)c2cc1OC)C(=O)OC3 : 16.4% [at 11.4 µM] (inactive)
Cc1ccc2c(c1)-c1c(cnn1CC(=O)N1CCCN(Cc3ccccc3F)C1)CO2 : -25.8% [at 11.4 µM] (inactive)
Brc1cnc2nc(SCc3nc4ccccc4[nH]3)[nH]c2c1 : 361% [at 11.4 µM] (inactive)
Cc1ccc2nc(N(CCCN(C)C)C(=O)c3ccc(S(=O)(=O)N4CCCCCC4)cc3)sc2c1 : -18.5% [at 11.4 µM] (inactive)
CC(C(=O)c1ccc(-c2ccccc2)cc1)[n+]1cccc(NC(=O)c2ccccc2)c1 (stereo unspecified) : -21.8% [at 11.4 µM] (inactive)

Task: I'd like to know its activity change, negative = inhibition. The molecule in question is O=c1c2c(-c3ccccc3)csc2nc2c3ccccc3c(NCCN3CCOCC3)nn12
Output: -12% [at 11.4 µM] (inactive)

Task: Note, next up: CCCc1nc(NC2CCCCC2)c(C#N)c2c1COC(C)(C)C2
Output: -15.4% [at 11.4 µM] (inactive)

Task: Note, next up: COc1cc(C)c(C(=O)CC(=O)c2c(C)cc(OC)cc2C)c(C)c1
Output: -13.8% [at 11.4 µM] (inactive)

Task: Note, next up: O=C1CCCC(O)=C1C=NCc1ccccc1
Output: 6.36% [at 11.4 µM] (inactive)

Task: Note, next up: Cc1cccc(/C=N/NC(=O)c2cccc(Cl)c2)n1
Output: -14.3% [at 11.4 µM] (inactive)

Task: Note, next up: CN1CCN(c2ccc(S(=O)(=O)N3CCCCC3)cc2NC(=O)/C=C/c2ccc(Cl)c([N+](=O)[O-])c2)CC1
Output: -27% [at 11.4 µM] (inactive)

Task: Note, next up: OC(c1ccccc1)(c1nc(-c2ccc3ccccc3c2)cs1)C(F)(F)F (stereo unspecified)
Output: 26.4% [at 11.4 µM] (inactive)

Task: Note, next up: CCn1c(CCC(=O)Nc2nc3c(s2)CCCC3)nc2cc(S(=O)(=O)N(C)C)ccc21
Output: 4.42% [at 11.4 µM] (inactive)

Task: Note, next up: Cc1cc(OCC(=O)NC(C)c2ccccc2)ccc1[N+](=O)[O-] (stereo unspecified)
Output: -19.4% [at 11.4 µM] (inactive)

Task: Note, next up: ClC(Cl)(Cl)c1nc2ccccc2n2nncc12
Output: -25.9% [at 11.4 µM] (inactive)

Task: Note, next up: COc1ccc(C)cc1Nc1nc(N)c2cc(OC)c(OC)cc2n1
Output: -12.3% [at 11.4 µM] (inactive)

Task: Note, next up: CO[C@@]12[C@@H]3N[C@@H]3CN1C1=C(C(=O)C(N)=C(C)C1=O)[C@@H]2COC(N)=O
Output: 10.2% [at 11.4 µM] (inactive)

Task: Note, next up: Cc1cc2nc(-c3nnnn3Cc3ccccc3)c(=O)[nH]c2cc1C
Output: -9.85% [at 11.4 µM] (inactive)

Task: Note, next up: O=C(NCc1ccco1)/C(=C/c1cccc(C(F)(F)F)c1)c1nc2ccccc2[nH]1
Output: -12% [at 11.4 µM] (inactive)

Task: Note, next up: COc1ccc(Cl)cc1S(=O)(=O)N1CCN(C(=O)c2n[nH]c(=O)c3ccccc23)CC1
Output: -26.4% [at 11.4 µM] (inactive)

Task: Note, next up: COc1cc(C(=O)O/N=C(\N)Cc2ccc([N+](=O)[O-])cc2)cc(OC)c1OC
Output: -6.35% [at 11.4 µM] (inactive)

Taken from PubChem BioAssay AID1745847.
